# system.under.test: recombinant human plasminogen activator inhibitor-1 (PAI-1) (Homo sapiens, UniProt P05121)
# Construct: purchased Molecular Innovations, Royal Oak, Mich
# Sequence (P05121 24-402): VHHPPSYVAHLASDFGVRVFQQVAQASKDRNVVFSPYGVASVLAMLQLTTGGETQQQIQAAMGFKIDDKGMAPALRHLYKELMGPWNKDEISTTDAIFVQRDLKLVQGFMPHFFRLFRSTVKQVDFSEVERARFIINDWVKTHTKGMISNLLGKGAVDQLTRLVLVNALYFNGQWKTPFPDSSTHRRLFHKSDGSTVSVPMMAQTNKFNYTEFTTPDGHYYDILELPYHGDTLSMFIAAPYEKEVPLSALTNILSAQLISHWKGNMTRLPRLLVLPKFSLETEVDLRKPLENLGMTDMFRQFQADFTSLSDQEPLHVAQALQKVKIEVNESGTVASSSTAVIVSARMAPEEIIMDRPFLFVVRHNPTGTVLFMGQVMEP
# experiment: Primary screen for the PAI-1 inhibition (chromogenic tPA activity)
# Assay type: biochemical
# test.parameters: 25 μM test compound; pH 6.6 buffer
# Experimental: Test compounds are dissolved in DMSO at a final concentration of 10 mM, then diluted 100× in physiologic buffer. […] Following the second incubation, Spectrozyme-tPA (American Diagnostica, Greenwich, Conn.), a chromogenic substrate for tPA, is added and absorbance read at 405 nm at 0 and 60 minutes. […]
measure.name: inhibition at 25 µM (%)

[
  {
    "smiles.repr": "O=C(O)c1c(-c2ccccc2)c2cc(Nc3ccc(-c4ccccc4)cc3)ccc2n1Cc1ccccc1",
    "unit.abbrev": "%",
    "inhibition at 25 µM": 71
  },
  {
    "smiles.repr": "CC(C)(C)c1ccc(Nc2ccc3c(c2)c(-c2ccccc2)c(C(=O)O)n3Cc2ccc(-c3ccccc3)cc2)cc1",
    "unit.abbrev": "%",
    "inhibition at 25 µM": 80
  },
  {
    "smiles.repr": "CC(C)(C)c1ccc(Nc2ccc3c(c2)c(-c2ccccc2)c(C(=O)O)n3Cc2ccccc2)cc1",
    "unit.abbrev": "%",
    "inhibition at 25 µM": 73
  },
  {
    "smiles.repr": "O=C(O)c1c(-c2ccccc2)c2cc(Nc3cccc4c3sc3ccccc34)ccc2n1Cc1ccccc1",
    "unit.abbrev": "%",
    "inhibition at 25 µM": 66
  },
  {
    "smiles.repr": "Cc1cccc(Nc2ccc3c(c2)c(-c2ccccc2)c(C(=O)O)n3Cc2ccccc2)c1",
    "unit.abbrev": "%",
    "inhibition at 25 µM": 69
  }
]

###

# system.under.test: recombinant human plasminogen activator inhibitor-1 (PAI-1) (Homo sapiens)
# Construct: purchased Molecular Innovations, Royal Oak, Mich
# experiment: Primary screen for the PAI-1 inhibition (chromogenic tPA activity)
# Type: biochemical
# test.parameters: 10 μM test compound; pH 6.6 buffer
measure.name: inhibition at 10 µM (%)

Illustrative cases are given below, each with its answer.
[
  {
    "smiles.repr": "O=C(O)c1c(-c2ccccc2)c2cc(Nc3cccc4c3sc3ccccc34)ccc2n1Cc1ccccc1",
    "system.under.test": "recombinant human plasminogen activator inhibitor-1 (PAI-1) (Homo sapiens)",
    "unit.abbrev": "%",
    "inhibition at 10 µM": 39
  },
  {
    "smiles.repr": "O=C(O)c1c(-c2ccccc2)c2cc(Nc3ccc(-c4ccccc4)cc3)ccc2n1Cc1ccccc1",
    "system.under.test": "recombinant human plasminogen activator inhibitor-1 (PAI-1) (Homo sapiens)",
    "unit.abbrev": "%",
    "inhibition at 10 µM": 36
  },
  {
    "smiles.repr": "CC(C)(C)c1ccc(Nc2ccc3c(c2)c(-c2ccccc2)c(C(=O)O)n3Cc2ccc(-c3ccccc3)cc2)cc1",
    "system.under.test": "recombinant human plasminogen activator inhibitor-1 (PAI-1) (Homo sapiens)",
    "unit.abbrev": "%",
    "inhibition at 10 µM": 52
  }
]

(a) CC(C)(C)c1ccc(Nc2ccc3c(c2)c(-c2ccccc2)c(C(=O)O)n3Cc2ccccc2)cc1
(b) Cc1cccc(Nc2ccc3c(c2)c(-c2ccccc2)c(C(=O)O)n3Cc2ccccc2)c1
Data request: Between these two entries, a and b , state which has the higher inhibition at 10 µM. Pick one; state its label.
Data returned: a
(a: 45%, b: 24%)

###

# system.under.test: human PAI-1 (Homo sapiens, UniProt P05121)
# Sequence (P05121 24-402): as above
measure.name: pIC50
Keep in mind that pIC50 stands for -log10 of concentration in molar terms.

Data request: Provide the documented pIC50 with human PAI-1 (Homo sapiens, UniProt P05121) as the system for CC(C)(C)c1ccc(Nc2ccc3c(c2)c(-c2ccccc2)c(C(=O)O)n3Cc2ccc(-c3ccccc3)cc2)cc1
Data returned: 4.92
